Conditions: in 1,4-dioxane, 318.15 K

{"columns": ["chemical_smiles", "solubility (mole fraction)"],
 "data": [
  ["CCOC(=O)[C@@H](N)Cc1ccccc1.Cl", 0.0115]
]}

* * *

Conditions: in 2-butoxyethanol, 288.15 K

{"columns": ["chemical_smiles", "solubility (mole fraction)"],
 "data": [
  ["CCOC(=O)[C@@H](N)Cc1ccccc1.Cl", 0.039]
]}

* * *

Conditions: in 2-propoxyethanol, 293.15 K

{"columns": ["chemical_smiles", "solubility (mole fraction)"],
 "data": [
  ["CCOC(=O)[C@@H](N)Cc1ccccc1.Cl", 0.052]
]}

* * *

Details: in n-butanol, 308.15 K

{"columns": ["chemical_smiles", "solubility (mole fraction)"],
 "data": [
  ["CCOC(=O)[C@@H](N)Cc1ccccc1.Cl", 0.0417]
]}

* * *

Details: in 1,4-dioxane, 313.15 K
readout: solubility (mole fraction)

{"columns": ["chemical_smiles", "reported_result"],
 "data": [
  ["CCOC(=O)[C@@H](N)Cc1ccccc1.Cl", 0.00876]
]}

* * *

Details: in isopropanol, 293.15 K

{"columns": ["chemical_smiles", "solubility (mole fraction)"],
 "data": [
  ["CCOC(=O)[C@@H](N)Cc1ccccc1.Cl", 0.0117]
]}

* * *

Settings: in THF, 313.15 K
readout: solubility (mole fraction)

{"columns": ["chemical_smiles", "readout", "reported_result"],
 "data": [
  ["CCOC(=O)[C@@H](N)Cc1ccccc1.Cl", "solubility (mole fraction)", 0.00316]
]}

* * *

Details: in 2-butoxyethanol, 303.15 K

{"columns": ["chemical_smiles", "solubility (mole fraction)"],
 "data": [
  ["CCOC(=O)[C@@H](N)Cc1ccccc1.Cl", 0.052]
]}

* * *

Details: in 2-butoxyethanol, 293.15 K
readout: solubility (mole fraction)

{"columns": ["chemical_smiles", "reported_result"],
 "data": [
  ["CCOC(=O)[C@@H](N)Cc1ccccc1.Cl", 0.0435]
]}

* * *

Conditions: in 1,4-dioxane, 288.15 K

{"columns": ["chemical_smiles", "solubility (mole fraction)"],
 "data": [
  ["CCOC(=O)[C@@H](N)Cc1ccccc1.Cl", 0.0023]
]}

* * *

Settings: in 2-propoxyethanol, 318.15 K
readout: solubility (mole fraction)

{"columns": ["chemical_smiles", "reported_result"],
 "data": [
  ["CCOC(=O)[C@@H](N)Cc1ccccc1.Cl", 0.08]
]}

* * *

Settings: in 1,4-dioxane, 308.15 K

{"columns": ["chemical_smiles", "solubility (mole fraction)"],
 "data": [
  ["CCOC(=O)[C@@H](N)Cc1ccccc1.Cl", 0.00668]
]}

* * *

Settings: in n-propanol, 283.15 K
readout: solubility (mole fraction)

{"columns": ["chemical_smiles", "readout", "reported_result"],
 "data": [
  ["CCOC(=O)[C@@H](N)Cc1ccccc1.Cl", "solubility (mole fraction)", 0.0272]
]}

* * *

Conditions: in THF, 293.15 K

{"columns": ["chemical_smiles", "solubility (mole fraction)"],
 "data": [
  ["CCOC(=O)[C@@H](N)Cc1ccccc1.Cl", 0.00127]
]}

* * *

Conditions: in 2-propoxyethanol, 298.15 K

{"columns": ["chemical_smiles", "solubility (mole fraction)"],
 "data": [
  ["CCOC(=O)[C@@H](N)Cc1ccccc1.Cl", 0.0557]
]}
